- Measurement Protocol: antimalarial activity against Dd2 strain (AID 2302);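 further: 0% = DMSO untreated growth and 100% = chloroquine plus artemisinin killed control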
- Test Settings: P. falciparum Dd2 in RBCs, LDH growth readout, 72 h; at 2 µM; active compounds read high
Values of growth inhibition greater than or equal to 60% map to True; values below map to False.

Previously resolved entries follow.
NC(N)=NC(=O)Nc1cc(Cl)c(Br)c(Cl)c1 | True
COc1ccc2nccc([C@@H](O)CN3CCC(NCc4cc5cc([N+](=O)[O-])ccc5[nH]4)CC3)c2c1 | False
CCCCc1cc(NC2CCN(C)CC2)nc(Nc2ccccc2)n1 | False
CN1CCC(NCc2ccc(-c3ccc(S(=O)(=O)NCc4ccccc4)cc3)cc2)CC1 | False

Query: Exam item: decide whether the reported growth inhibition for CS(=O)(=O)c1cc2c(Nc3ccc(N4CCOCC4)cc3)c(C(N)=O)cnc2cc1Br is at least 60%.
Response: True

Query: Please check the record COc1ccc2nccc([C@@H](O)CNCCCN(C)CCOc3cc(F)cc(F)c3)c2c1 and state if its growth inhibition is at or above 60%.
Response: False

Query: Tell me whether growth inhibition is at least 60% here: Cc1nc(-c2nc(NCc3ccncc3)ncc2-c2ccsc2)sc1C
Response: True

---

# growth inhibition listing for each entry below
- Measurement Protocol: inhibition of 3D7 malaria parasite growth – strain 3D7 (AID 2306);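 further: 0% = DMSO wells and 100% = chloroquine plus artemisinin control wells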
- Test Settings: P. falciparum 3D7 erythrocytic growth, LDH absorbance, 72 h; at 2 µM; active compounds read high
Number only, in %; omit the unit.

# example entries with known answers
COc1ccc(-n2nc(C)c3c2NC(=O)CC3c2ccccc2OCc2ccc(F)cc2)cc1 (centres undefined) | 93
O=C(Nc1ccc(Cl)c(C(F)(F)F)c1)c1ccc(C(=O)Nc2ccc(Cl)c(C(F)(F)F)c2)cc1 | 88
OC1CCCN(Cc2cccc(-c3ccc(-c4nc5ccc(F)cc5[nH]4)cc3)c2)C1 (centres undefined) | 101
O[C@H](c1cc(C(F)(F)F)nc2c(C(F)(F)F)cccc12)[C@@H]1CCCCN1 | 99
COc1cc2c(cc1S(=O)(=O)c1ccc(COc3ccc(C(F)(F)F)cc3)cc1)CNCC2 | 103
CC(C)Cn1cc(C2CCN(CCN3CCC(CNC(=O)c4ccc(NC(=O)c5ccc(Cl)cc5)cc4)CC3)CC2)c2ccccc21 | 101
Nc1nc(N)c2c(ccc3nn(C4CCCC4)cc32)n1 | 97
CCc1nn2c(Nc3ccncc3)cc(C)nc2c1-c1ccccc1 | 100

Field: next molecule
The measured growth inhibition associated with O=C(O)c1ccc(NC(=O)C2CC(=O)N(Cc3ccc(Cl)cc3)C(=Nc3ccc(Cl)cc3)S2)cc1 (centres undefined) reads 99

---

- Measurement Protocol: human hepatoma cell viability loss – ATP luminescence, cytotoxicity control for P. falciparum antimalarial project, primary screen (AID 2303);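 further: 0% = DMSO wells and 100% = digitonin-killed cells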
- Test Settings: HepG2 viability, 24-48 h, at 10 µM, active compounds read high
Measured inhibition values are reported for all entries that follow.
The figure you give is taken to be in %; do not add the unit.

These recorded examples may help you get a feel for the data.
CC1(C)N=C(N)N=C(N)N1OCCCc1ccccc1 | 64
Cc1cc2c(cc1C(F)(F)F)N(C(=O)Nc1cc(C(=O)NC3CCN(Cc4ccccc4)C3)cc(C(F)(F)F)c1)CC2 (stereo not drawn) | 22
CNCCNCc1ccc(-c2ccc(-c3nc4ccc(F)cc4[nH]3)cc2)cc1 | 30
COc1ccc2ncc(C#N)c(CCN3[C@@H]4CC[C@H]3CC(NCc3ccc5c(n3)NC(=O)CS5)C4)c2c1 (stereo partly drawn) | 6
O=C(NC1CC1)c1cnc(N2CCN(Cc3ccc(Cl)cc3)CC2)c(Cl)c1 | 39

inhibition in this record for CC(=O)Oc1cc(C)ccc1C1CCN(CCCCNC(=O)c2ccc(-c3ccc(C(F)(F)F)cc3)cc2)CC1 : 54

Lab note: CCn1ccc2c(N3CCCC3=O)cc(C(=O)N[C@@H](Cc3ccccc3)[C@H](O)CNC3CCCCC3)cc21 gave inhibition of 12

Sure, the documented inhibition for Cc1cc(NCCC(=O)NCCOc2ccccc2)nc(NCCOc2ccccc2)n1 is 8

# molecule COc1ccc(NC(=O)[C@H](Cc2ccccc2)Nc2cc(C)nc(Nc3ccccc3)n2)cc1 ; its inhibition = 0

Summary for this molecule, CC(=O)Nc1ccc(C(=O)Nc2ccc(-c3cccc(-c4nc5c(C)cccc5[nH]4)c3)cc2)cn1 : inhibition is 36

So for CCc1cn2c3c(cc(C(=O)N[C@@H](Cc4ccccc4)[C@H](O)CNC4CC4)cc13)N(CC)S(=O)(=O)CC2 , the logged inhibition turned out to be 13

What the record says about Cc1cc(NC(=O)Nc2ccc(N(C)C)cc2)c2cc(Cl)ccc2n1 : inhibition is -4

# inhibition of COc1c(C2=CCN(CCCCNC(=O)c3ccc(-c4ccc(C#N)cc4)cc3)CC2)c(C)cc2c1C(C)(C)CCC2(C)C = 18

Entry Cc1cc(-c2nc3ccc(CN4CCN(C)CC4)cc3[nH]2)nn1Cc1cc(Cl)ccc1OCc1ccccc1 ; inhibition = 3

Per the records, this molecule ( COc1ccc(CNCCCCCCCNCc2ccc(Cl)c(Cl)c2)cc1Cl ) has inhibition equal to 27

The molecule CN(C)CCNCc1cccc(-c2ccc3c(Nc4ccc(F)cc4Cl)ccnc3c2)c1 showed inhibition equal to 17

GET /value?item= COc1cccc2c(NN=Cc3cccc(Cl)c3)ccnc12 &field=inhibition returns 19

Short answer for COc1ccc(-c2csc3ncnc(Cl)c23)cc1 : inhibition was -15

Lab book: inhibition of Cc1cccc2[nH]c(-c3cccc(-c4ccc(NC(=O)CN5CCN(C)CC5)cc4)c3)nc12 noted as 45

---

- Assayed Target: Protein kinase 7 (PK7), Plasmodium falciparum 3D7 (PF3D7_0213400)
- Measurement Protocol: inhibition of Plasmodium PK7 catalytic activity – biochemical, TCAMS antimalarial set, Kinase-Glo luminescence (AID 1159587)
- Test Settings: recombinant PfPK7, Kinase-Glo ATP depletion luminescence
Active and inactive are the calls of the source. The rule behind the calls is not given here.
Value Kind: outcome

O=C(Cn1c(=O)cnc2ccccc21)Nc1cccc(C(=O)Nc2cccc(C(F)(F)F)c2)c1 | inactive
CCn1c(-c2nonc2N)nc2cnc(Oc3cccc(NC(=O)c4ccc(OCCN5CCCCC5)cc4)c3)cc21 | inactive
CC(=NN=C(N)N)c1ccc2ccc3ccccc3c2c1 | inactive
COc1ccc(N2CCN(CCCCNC(=O)c3ccc(NC(=O)c4cc(C(F)(F)F)cc(C(F)(F)F)c4)cc3)CC2)c(OC)c1 | inactive
CC(=O)Nc1ccc(NC(=O)c2cc(-c3cc(Cl)ccc3O)n[nH]2)cc1 | inactive
Oc1cc(Nc2ccnc3ccc(I)cc23)c(F)cc1Cl | inactive
O=C(Nc1ccc(-c2cccc(-c3nc4ccc(F)cc4[nH]3)c2)cc1)Nc1ccc(Cl)c(Cl)c1 | inactive
COc1ccc(CNC(=O)NC2CCN(c3ccnc(Nc4ccc(OC)cc4)n3)C2)cc1 (stereo not given) | inactive
COc1ccc2nccc(N3C[C@H]4C[C@@H]3CN4CCNCc3ccc4c(n3)NC(=O)CS4)c2n1 | inactive
CCCCCC(C)C(C)c1cc(O)c2c(c1)OC(C)(C)CC2(O)c1ccnn1C (stereo not given) | inactive

# outcome (molecule: COc1ccc2nccc(NC(=O)CNCc3ccc(-c4ccccc4)cc3)c2c1 ) is inactive

// outcome value for COc1ccc(C2CCC(NCCCCNC(=O)c3ccc(NC(=O)c4ccc(Cl)cc4)cc3)CC2)cc1 (stereo not given) : inactive

Data point: CN(C)CC(=O)N(Cc1ccc(Cl)c(Cl)c1)Cc1csc(-c2ccc(CNCc3ccccc3)cc2)n1 ; outcome = inactive

The reported value for Cc1cccc2c(N=NC(=S)N(C)C)c(O)[nH]c12 in terms of outcome is inactive

The recorded outcome for entry CN(C)CCOc1ccc(-c2cc(-c3ccncc3)c(-c3ccc(Cl)c(O)c3)o2)cc1 equals inactive

Record summary for O=C(Nc1ccc(OC2CCN(Cc3ccsc3)CC2)c(Cl)c1)c1ccc(F)cc1 : reported outcome = inactive

# outcome of COc1ccc(-c2onc(C(F)(F)F)c2-c2cc3ccccc3o2)c(O)c1 = inactive

The molecule identified as CN1CCCN(c2ccnc3cc4c(cc23)N(C(=O)c2ccc(Cl)cc2)CC4)CC1 registered its outcome at inactive

---

- Measurement Protocol: human hepatoma cell viability loss – ATP luminescence, cytotoxicity control for P. falciparum antimalarial project, primary screen (AID 2303);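 further: 0% = DMSO wells and 100% = digitonin-killed cells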
- Test Settings: HepG2 viability, 24-48 h, at 10 µM
Activity calls are given as the source filed them.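 Rule for the calls: active = inhibition above 50%; inactive = the rest.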
Answer with one of the outcomes given here: true = active, false = inactive

COc1ccc2nccc([C@@H](O)CN3CCC(NCc4cc5oc(=O)n(C)c5cc4F)CC3)c2c1 | false
CCOc1cccc2nc(NCCCNCc3ccc(Cl)c(Cl)c3)cc(NCCCNCc3ccc(Cl)c(Cl)c3)c12 | true
CN(C)CCCNc1ncnc2c1[nH]c1ccc(Cl)cc12 | false

Query: Field: outcome | Entry: Cn1c(=O)c2nc(-c3ccc(Cl)cc3)nnc2n(CCCC#N)c1=O
Response: false

Query: Given Cc1cccc2[nH]c(-c3ccc(-c4ccc(NC(=O)C(=O)c5cccn5C)cc4)cc3)nc12 , state the outcome it received in this test.
Response: false
